# testedOn: F876L mutant Androgen Receptor (AR-F876L) (Homo sapiens (Human), UniProt P10275, F877L)
# Sequence (P10275 whole entry F877L): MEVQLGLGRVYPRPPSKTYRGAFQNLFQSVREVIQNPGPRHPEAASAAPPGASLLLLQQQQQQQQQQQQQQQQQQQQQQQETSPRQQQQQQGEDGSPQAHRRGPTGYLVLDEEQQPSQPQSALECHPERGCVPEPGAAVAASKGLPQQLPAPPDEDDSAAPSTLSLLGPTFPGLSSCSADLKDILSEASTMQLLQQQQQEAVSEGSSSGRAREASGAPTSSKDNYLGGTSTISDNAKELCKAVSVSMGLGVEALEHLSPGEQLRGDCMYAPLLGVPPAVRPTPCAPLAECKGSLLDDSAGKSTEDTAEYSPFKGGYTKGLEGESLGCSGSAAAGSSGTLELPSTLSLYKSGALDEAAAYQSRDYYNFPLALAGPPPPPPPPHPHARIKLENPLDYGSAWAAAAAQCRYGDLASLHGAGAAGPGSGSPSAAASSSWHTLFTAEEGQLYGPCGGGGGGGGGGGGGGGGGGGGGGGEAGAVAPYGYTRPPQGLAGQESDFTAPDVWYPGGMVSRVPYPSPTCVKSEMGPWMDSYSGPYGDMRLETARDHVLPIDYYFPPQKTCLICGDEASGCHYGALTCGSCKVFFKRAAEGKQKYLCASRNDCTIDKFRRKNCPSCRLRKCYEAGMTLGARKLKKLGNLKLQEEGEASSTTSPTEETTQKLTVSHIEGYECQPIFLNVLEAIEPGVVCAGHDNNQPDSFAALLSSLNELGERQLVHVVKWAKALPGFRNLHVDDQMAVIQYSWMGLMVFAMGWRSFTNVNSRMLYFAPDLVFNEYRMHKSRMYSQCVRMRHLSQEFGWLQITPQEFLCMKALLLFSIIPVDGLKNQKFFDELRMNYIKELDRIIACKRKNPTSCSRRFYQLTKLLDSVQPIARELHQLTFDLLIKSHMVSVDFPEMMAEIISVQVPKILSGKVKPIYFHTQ
# procedureDetails: LNCaP-AR-F876L AG reporter assay (agonist mode)
# Assay type: cell-based
# condition: maximum % stimulation (agonist response) over the tested concentration range
valueKind: LNCaP-AR-F876L AG MAX % Stim
Answer by giving the amount and then stating its unit.

| compound | LNCaP-AR-F876L AG MAX % Stim |
| --- | --- |
| N#Cc1ncc(N2C(=O)C3(CCC3)N(c3ccc(OC4CCCNCC4)cc3)C2=S)cc1C(F)(F)F (stereo not shown) [Cpd 30] | 0.3% |
| N#Cc1ncc(N2C(=O)C3(CCC3)N(c3ccc(OC4CCNCC4)nc3)C2=S)cc1C(F)(F)F | 0.1% |
| CC1COC(COc2ccc(N3C(=S)N(c4cnc(C#N)c(C(F)(F)F)c4)C(=O)C34CCC4)cc2)CN1 (stereo not shown) | 0.4% |

Checklist item: LNCaP-AR-F876L AG MAX % Stim tested on F876L mutant Androgen Receptor (AR-F876L) (Homo sapiens (Human), UniProt P10275, F877L), entry N#Cc1ncc(N2C(=O)C3(CCC3)N(c3ccc(OC4CCCNCC4)cc3)C2=S)cc1C(F)(F)F (stereo not shown) [Cpd 17] , value?
0.1%
